Provide the recorded GI50 for the entries that follow.
# Tested on: HCT-15 colon
# assayOverview: NCI tumour cell line growth inhibition, 48 h

Some entries whose results are on file:
| molecule | assayedSystem | measuredProperty | dataValue |
| --- | --- | --- | --- |
| Nc1cc(-c2ccccc2)ccc1O | HCT-15 colon | GI50 | 68.7 µM |
| COc1ccc2c(c1)CC[C@@H]1[C@@H]2CC[C@@]2(C)[C@H]1CC1(CCCCC1)[C@@H]2O | HCT-15 colon | GI50 | 2.59 µM |
| C(=C1c2ccccc2-c2ccccc21)c1ccccn1 | HCT-15 colon | GI50 | 6.21 µM |
| COc1ccc(O)c(C(=O)c2ccc(C(=O)O[C@@H]3CCCNC[C@H]3NC(=O)c3ccncc3)cc2)c1F | HCT-15 colon | GI50 | 0.918 µM |
| CC(C)=CCc1c(O)cc(/C=C/c2cc(O)c3c(c2)C[C@@H]2C(C)(C)[C@H](O)[C@H](O)C[C@@]2(C)O3)cc1O | HCT-15 colon | GI50 | 1.28 µM |

Below are some molecules; for each one, tell me its GI50.
1. O=C(Nc1cc(C(F)(F)F)ccc1F)Nc1n[nH]c2ccccc12
2. CCC[C@H](N[C@@H]1CCc2cc(F)cc(F)c2C1)C(=O)Nc1cn(C(C)(C)CNCC(C)(C)C)cn1
3. COC(CCP(=O)(c1ccccc1)c1ccccc1)(C(=O)c1ccccc1)c1ccccc1 (configuration not stated)
4. O=C1OCC(C#Cc2ccccc2)=C1Cl

Found:
1: > 100 µM; 2: 15.7 µM; 3: 3.19 µM; 4: 4.36 µM

Below are some molecules; for each one, tell me its GI50.
1. CC(ONC(=O)c1cc(C(F)(F)F)cc(C(F)(F)F)c1)C(=O)Nc1ccc(Cl)cc1 (configuration not stated)
2. CC1(C)N=C(N)N=C(N)N1c1ccc(F)c(C(F)(F)F)c1
3. O=C(COc1cccc(/C=C2\COc3ccccc3C2=O)c1)Nc1nccs1

Found:
1. 4.98 µM
2. 1.58 µM
3. 3.11 µM
